biological target: hCB1 (Homo sapiens); test: Antagonism of CB1 receptors expressed in CHO cells, cAMP assay against CP 55,940 (Protocol IX.1); type: cell-based; design: expressed in transfected cells; host or cells: CHO (h-CB1/CHO, G418-selected); details: at 10 uM, h-CB1/CHO cells, cAMP, vs 30 nM CP 55,940
Sequence (P21554 whole entry): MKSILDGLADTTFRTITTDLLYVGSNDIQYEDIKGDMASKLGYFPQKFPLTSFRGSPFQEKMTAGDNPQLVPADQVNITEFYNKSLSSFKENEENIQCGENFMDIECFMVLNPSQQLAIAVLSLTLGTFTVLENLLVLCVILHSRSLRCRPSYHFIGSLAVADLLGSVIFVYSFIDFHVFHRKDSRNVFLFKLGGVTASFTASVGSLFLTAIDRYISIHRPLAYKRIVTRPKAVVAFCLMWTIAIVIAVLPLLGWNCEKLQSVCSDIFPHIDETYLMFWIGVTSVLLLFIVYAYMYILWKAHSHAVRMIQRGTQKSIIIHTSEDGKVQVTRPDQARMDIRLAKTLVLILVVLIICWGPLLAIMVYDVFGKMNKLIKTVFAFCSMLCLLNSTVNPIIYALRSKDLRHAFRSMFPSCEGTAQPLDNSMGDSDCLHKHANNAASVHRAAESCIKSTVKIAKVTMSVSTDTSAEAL
ATTRIBUTE MEASURED: hCB1 Antagonism (% at)
# unit: % at | format: bare number

O=C(NN1CCCCC1)c1nn(-c2ccc(Cl)cc2)c2c1C1CC3CC(C1)CC2C3 ... 19.31

// next entry
Record "O=C(NC12CC3CC(CC(C3)C1)C2)c1nn(-c2ccc(Cl)cc2)c2c1C1CC3CC(C1)CC2C3" . Reported hCB1 Antagonism: 61.64
